Consider compounds characterized by their Ki with D(2) dopamine receptor (Homo sapiens).
Sequence (P14416 whole entry): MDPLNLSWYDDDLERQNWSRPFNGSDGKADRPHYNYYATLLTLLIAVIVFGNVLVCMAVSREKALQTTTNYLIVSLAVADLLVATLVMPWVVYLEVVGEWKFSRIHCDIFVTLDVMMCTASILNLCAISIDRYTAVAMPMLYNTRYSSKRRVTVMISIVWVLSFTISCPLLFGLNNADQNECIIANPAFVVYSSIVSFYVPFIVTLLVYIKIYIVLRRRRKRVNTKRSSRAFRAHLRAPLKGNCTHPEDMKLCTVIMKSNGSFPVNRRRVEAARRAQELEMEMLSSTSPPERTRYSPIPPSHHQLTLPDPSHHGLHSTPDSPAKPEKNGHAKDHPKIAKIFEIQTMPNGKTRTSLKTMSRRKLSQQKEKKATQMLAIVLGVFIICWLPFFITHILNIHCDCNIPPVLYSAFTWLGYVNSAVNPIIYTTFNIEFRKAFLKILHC

Entry Smiles	Study Target	Ki [nM]
O=C1c2ccccc2S(=O)(=O)N1CCCCCN1CCN(c2cccc(C(F)(F)F)c2)CC1	D(2) dopamine receptor (Homo sapiens)	34
COc1ccccc1N1CCN(CCCCCCN2C(=O)c3ccccc3S2(=O)=O)CC1	D(2) dopamine receptor (Homo sapiens)	1
O=C1c2ccccc2S(=O)(=O)N1CCCCCN1CCN(c2ccc(Cl)cc2)CC1	D(2) dopamine receptor (Homo sapiens)	254
COc1ccccc1N1CCN(Cc2ccc(CN3C(=O)c4ccccc4S3(=O)=O)cc2)CC1	D(2) dopamine receptor (Homo sapiens)	2
O=C1c2ccccc2S(=O)(=O)N1CCCCCN1CCN(c2ncccn2)CC1	D(2) dopamine receptor (Homo sapiens)	954

----------
Consider compounds characterized by their pKi with 5-hydroxytryptamine receptor 2A (Homo sapiens).
Sequence (P28223 whole entry): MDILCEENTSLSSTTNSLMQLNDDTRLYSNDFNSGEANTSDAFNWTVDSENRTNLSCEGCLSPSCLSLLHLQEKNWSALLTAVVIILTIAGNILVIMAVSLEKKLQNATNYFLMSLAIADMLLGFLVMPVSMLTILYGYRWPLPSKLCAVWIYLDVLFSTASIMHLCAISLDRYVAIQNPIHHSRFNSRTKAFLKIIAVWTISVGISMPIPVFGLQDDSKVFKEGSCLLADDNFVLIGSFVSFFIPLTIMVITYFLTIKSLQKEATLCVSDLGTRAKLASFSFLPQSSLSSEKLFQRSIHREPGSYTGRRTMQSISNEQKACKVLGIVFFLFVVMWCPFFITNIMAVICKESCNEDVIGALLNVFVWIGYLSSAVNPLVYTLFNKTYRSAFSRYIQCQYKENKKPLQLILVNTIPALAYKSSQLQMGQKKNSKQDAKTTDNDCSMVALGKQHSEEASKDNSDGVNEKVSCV
pKi: −log10 of the molar value.
Observation Type: pKi

Entry Smiles	Endpoint Value
O=C1c2ccccc2S(=O)(=O)N1CCCCCN1CCN(c2ccccn2)CC1	5.84
COc1ccccc1N1CCN(Cc2ccc(CN3C(=O)c4ccccc4S3(=O)=O)cc2)CC1	5.32
COc1ccccc1N1CCN(CCCCCCN2C(=O)c3ccccc3S2(=O)=O)CC1	6.12
O=C1c2ccccc2S(=O)(=O)N1CCCCCCN1CCN(c2cccc(Cl)c2Cl)CC1	6.52
O=C1c2ccccc2S(=O)(=O)N1CCCCN1CCN(c2cccc(Cl)c2Cl)CC1	5.59
O=C1c2ccccc2S(=O)(=O)N1CCCCCN1CCN(c2cccc(Cl)c2Cl)CC1	6.90
O=C1c2ccccc2S(=O)(=O)N1CCCCCN1CCN(c2ccccc2)CC1	6.50
O=C1c2ccccc2S(=O)(=O)N1CCCCCN1CCN(c2ccc(Cl)cc2)CC1	6.86
O=C1c2ccccc2S(=O)(=O)N1CCCCCN1CCN(c2cccc(C(F)(F)F)c2)CC1	6.79
